- target.system: T1, human CD20 on cells (human, UniProt P11836 1-297)
- T1 sequence (looked up): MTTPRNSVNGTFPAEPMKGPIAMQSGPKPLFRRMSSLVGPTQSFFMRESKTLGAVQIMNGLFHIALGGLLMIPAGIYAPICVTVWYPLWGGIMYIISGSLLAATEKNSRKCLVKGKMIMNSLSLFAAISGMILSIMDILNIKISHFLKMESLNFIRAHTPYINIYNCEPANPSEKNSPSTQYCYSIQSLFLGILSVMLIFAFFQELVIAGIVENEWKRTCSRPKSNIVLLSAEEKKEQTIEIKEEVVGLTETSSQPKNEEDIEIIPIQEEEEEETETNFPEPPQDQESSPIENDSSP
- assay.details: cell-based or functional assay
measured.quantity: IC50, flow cytometry based human T cell mediated Ramos killing assay, E:T 10:1 (nM)
Answers are plain numbers, in nM.

{"binder": "T017000068 (bispecific antibody, CD20 x TCR bispecific Nanobody construct (cluster B); entry includes the FLAG3-HIS6 tag; also called 20CD019C07-35GS-T0170055C07-FLAG3-HIS6) EVQLVESGGGLVQPGGSLRLSCTFSGGTFSSYTMGWFRQAPGKEREFVAEVRWGGVTTYSNSLKDRFSISEDSVKNAVYLQMNSLKPEDTAVYYCAAVRQMYMTVVPDYWGQGTLVTVSSGGGGSGGGGSGGGGSGGGGSGGGGSGGGGSGGGGSEVQLVESGGGLVQPGGSLRLSCITSGETFKINIWGWYRQAPGKQRELVASLTIGGATNYADSVKGRFTISEDSAKNTVYLQMNSLKPEDTAVYFCNAKSRLYPYDYWGQGTLVTVSSGAADYKDHDGDYKDHDIDYKDDDDKGAAHHHHHH", "value.unit": "nM", "data.value": 1}

Requested read-out: IC50, flow cytometry based human T cell mediated Ramos killing assay, E:T 10:1. Entry: T017000038 (bispecific antibody, TCR x CD20 bispecific Nanobody construct (cluster C); entry includes the FLAG3-HIS6 tag; also called T0170061G01-35GS-20CD019C07-FLAG3-HIS6) EVQLVESGGGLVQPGGSLRLSCAASGEIGRINFYRWYRQAPGNQREVVATITIADKTDYADSAKGRFTISRDESRNMVYLQMSSLKPEDTAVYFCHAGSRLYPYDYWGQGTLVTVSSGGGGSGGGGSGGGGSGGGGSGGGGSGGGGSGGGGSEVQLVESGGGLVQPGGSLRLSCTFSGGTFSSYTMGWFRQAPGKEREFVAEVRWGGVTTYSNSLKDRFSISEDSVKNAVYLQMNSLKPEDTAVYYCAAVRQMYMTVVPDYWGQGTLVTVSSGAADYKDHDGDYKDHDIDYKDDDDKGAAHHHHHH
2.7
